Data credit: PubChem BioAssay AID1645852

Biological target: Inositol hexakisphosphate kinase 1 (Homo sapiens)
Assay: Confirmatory qHTS assay for small molecule inhibitors of Inositol hexaphosphate kinase 1 (IP6K1); also: nearly all actives have a fitted effect of over 65% in size
Settings: recombinant IP6K1 kinase, ADP-Glo luminescence, 2 h; series mostly up to 49 µM
The whole screen tested about 1,200 compounds, of which about 160 (13%) were called active. Another 31% or so got no clear call; they are omitted. Calls follow the shape of the dose curve; as a rule, active = well fitted inhibition curve with a large enough effect; inconclusive = small, poorly fitted or top-dose-only effect; inactive = no such curve, though single readings can be large or run the other way. These entries were drawn from the full list.
Please reply with one of these outcomes: active, inactive

Exam item: Tell me the recorded outcome of this test for `O=c1ncn(Cc2ccccc2)c2ccc(-c3ccoc3)nc12` .
Marked response: inactive

Exam item: Tell me the recorded outcome of this test for `O=C(OCCN1CCOCC1)c1cccnc1Nc1cccc(C(F)(F)F)c1` .
Marked response: inactive

Exam item: Tell me the recorded outcome of this test for COc1c(C)cnc(CN(C)C(=O)C2CC(=O)N(C3CCCC3)C2)c1C (centres undefined) .
Marked response: inactive

Exam item: Tell me the recorded outcome of this test for CCOc1ncccc1C(=O)N1CCN(Cc2ccccc2)CC(O)C1 (centres undefined) .
Marked response: inactive

Exam item: Tell me the recorded outcome of this test for `CCOC(=O)c1ccc(NC(=O)CCS(=O)(=O)c2ccc(C)cc2)cc1` .
Marked response: inactive

Exam item: Tell me the recorded outcome of this test for CC1=C(C(=O)Nc2ccccc2Cl)C(c2cccs2)n2ncnc2N1 (centres undefined) .
Marked response: inactive

Exam item: Tell me the recorded outcome of this test for CCc1ccccc1N1CC(c2nc3ccccc3n2CCCCOc2ccccc2)CC1=O (centres undefined) .
Marked response: inactive

Exam item: Tell me the recorded outcome of this test for `CC(C)(C)OC(=O)N1CCC(c2c(C(=O)N3CCc4ccccc4C3)cnn2-c2ccc(F)cc2)CC1` .
Marked response: inactive

Exam item: Tell me the recorded outcome of this test for Cc1cccc(C(=O)N2CCC3(CC2)CC(c2ccccc2)CN(C)C3)n1 (centres undefined) .
Marked response: inactive

Exam item: Tell me the recorded outcome of this test for `Cc1ccc(-c2cc(C(=O)Oc3ccccc3Cl)no2)cc1C` .
Marked response: inactive

Exam item: Tell me the recorded outcome of this test for Cc1ccncc1C(=O)N1CCC2(CC1)CC(c1ccccc1)C(=O)N2C (centres undefined) .
Marked response: inactive

Exam item: Tell me the recorded outcome of this test for `C(=C\c1ccccc1)/CN1CCN(c2nccc(-c3cccnc3)n2)CC1` .
Marked response: inactive

Exam item: Tell me the recorded outcome of this test for `CCOc1cccc2c1N[C@@H](c1ccc(C(=O)O)cc1)[C@H]1CC=C[C@@H]21` .
Marked response: active

Exam item: Tell me the recorded outcome of this test for `COc1ccc2ncc3c(-c4ccc(C)c(C)c4)nn(CC(=O)NC4CCCC4)c3c2c1` .
Marked response: inactive

Exam item: Tell me the recorded outcome of this test for `CCOC(=O)c1cc2c(=O)n3ccccc3nc2n(Cc2ccco2)c1=NC(=O)c1ccc(F)cc1` .
Marked response: inactive

Exam item: Tell me the recorded outcome of this test for `CCCS(=O)(=O)c1ncc(Cl)c(C(=O)Nc2scc(-c3ccccc3)c2C(=O)OCC)n1` .
Marked response: inactive

Exam item: Tell me the recorded outcome of this test for `Cc1ccc2c(c1)N(CC(=O)NCCCN1CCCCC1)C(=O)c1cccnc1O2` .
Marked response: inactive

Exam item: Tell me the recorded outcome of this test for CCOc1ccccc1NC(=O)C1CCCN(S(=O)(=O)c2cn(C)cn2)C1 (centres undefined) .
Marked response: inactive

Exam item: Tell me the recorded outcome of this test for `O=c1c2ccccc2n(Cc2cccc(Cl)c2)c(=O)n1Cc1ccccc1` .
Marked response: inactive
